test.details: Plasma stability determination
Format: in vitro ADME
study.conditions: mouse
Where a SMILES comes first, the peptide text is derived from it. [ ]: non-standard residue; d: D form. The star is where a group is joined. Aze = O=C(O)[C@@H]1CCN1; dAze = O=C(O)[C@H]1CCN1; Bz = O=C(c1ccccc1)*
half-life at 5 µM: recorded values
measurement.type: half-life at 5 µM

COC(=O)[C@@H](NC(=O)[C@@H]1CCN1C(=O)c1ccc(F)cc1)C(C)C [A-2-27] :: 4.75 h
CC(=O)N1CC[C@@H]1C(=O)N[C@@H](c1ccccn1)C(C)C [B-2-8] :: > 4.82 h
COC(=O)[C@@H](NC(=O)[C@@H]1CCN1C(=O)C1CC1)C(C)C [A-2-21] :: > 4.82 h
COC(=O)[C@@H](NC(=O)[C@@H]1CCN1C(=O)c1cccs1)C(C)C [A-2-33] :: > 4.82 h
CC(=O)N1CC[C@@H]1C(=O)NC(c1cc2ccccc2[nH]1)C(C)C (stereo partly drawn) [B-2-33] :: > 4.82 h
COC(=O)[C@@H](NC(=O)[C@H]1CCN1C(=O)c1ccc(F)cc1)C(C)C [A-2-26] :: 3.83 h
COc1ccc(C(NC(=O)[C@H]2CCN2C(C)=O)C(C)C)cc1 (stereo partly drawn) [B-2-24] :: > 4.82 h
COC(=O)[C@@H](NC(=O)[C@@H]1CCN1C(=O)c1ccc(C(F)(F)F)cc1)C(C)C [A-2-25] :: 3.24 h
[2H]C([2H])([2H])C(=O)N1CC[C@H]1C(=O)N[C@@H](c1ncco1)C(C)C [B-2-42] :: > 4.82 h
CC(=O)N1CC[C@@H]1C(=O)N[C@H](c1ncco1)C(C)C [B-2-41] :: > 4.82 h
COC(=O)[C@@H](NC(=O)[C@H](C)NC(C)=O)C(C)C [ZZL-7, acetyl-L-alanyl-L-valine methyl ester, reference compound] (Ac-Ala-Val-OMe) :: 0.421 h
COC(=O)[C@@H](NC(=O)[C@H]1CCN1C(=O)c1ccccc1)C(C)C [A-2-22] (Bz-[dAze]-Val-OMe) :: > 4.82 h
CC(C)[N+](C)(CCOC(=O)C1c2ccccc2Oc2ccccc21)C(C)C [Propantheline, reference compound] :: 0.417 h
C[C@H](NC(=O)[C@@H]1CCCN1)C(=O)O [D5-PA, reference compound] (H-Pro-Ala-OH) :: 0.877 h
COC(=O)[C@@H](NC(=O)[C@@H]1CCN1C(=O)c1ccc(Cl)cc1)C(C)C [A-2-29] :: 3.78 h
COC(=O)[C@@H](NC(=O)[C@H]1CCN1C(=O)c1ccc(C(F)(F)F)cc1)C(C)C [A-2-24] :: > 4.82 h
COC(=O)[C@@H](NC(=O)[C@@H]1CCN1C(=O)c1ccco1)C(C)C [A-2-31] :: > 4.82 h
COC(=O)[C@@H](NC(=O)[C@@H]1CCN1C(=O)c1ccccc1)C(C)C [A-2-23] (Bz-[Aze]-Val-OMe) :: > 4.82 h
